method notes: Fluorescence of DAPI binding to double stranded DNA
conditions used: 50 nM double stranded DNA, 100 nM DAPI, 10 mM Tris-HCl pH 8.0, 50 mM NaCl, 5 minutes room temperature
Description: For gel-based substrates, completed reactions were mixed with a dye-free SDS loading buffer (50 mM Tris-HCl (pH 6.8), 100 mM dithiothreitol, 4% SDS, 10% glycerol), heated to 90° C. for 5 minutes, separated by 12% SDS-PAGE, and visualized by PhosphorImager analysis (Bio-Rad Molecular Imager FX) (Bio-Rad Laboratories, Hercules, Calif.). […] Final concentrations of the fluorescence effecting molecules at the time of detection in these experiments were 100 nM DAPI, 50 nM substrate, and 25-800 nM enzyme. […]
Listed next: entries and their corresponding FI (Fluorescence Intensity).
property measured: FI (Fluorescence Intensity)

5′-gccccgccgccccgccncaattccgccgccgcc-3′ [N5R]	60.7 ± 3.0 x10^−3
5′-gccccgccaattcnccgccgccgcc-3′ [5L]	65.9 ± 2.6 x10^−3
5′-gccccgccaattnccgccgccgcc-3′ [4L]	55.2 ± 2.8 x10^−3
5′-gccccgccgccccgccnaattccgccgccgcc-3′ [5R]	69.5 ± 2.9 x10^−3
